# Lookup of reported IC50 keyed by entry
METHOD DESCRIPTION: Cytotoxicity against human OECM1 cells after 72 hrs by Alamar blue assay
Format: functional, cell-based
CONDITION NOTES: OECM1, 72 h
Kindly provide the numeric value in µM only, without the unit symbol.

Data point: `CCn1c2c(c3ccccc31)Cc1c(CO)c(CO)c(C)n1C2` ; IC50 = 1.17

Data point: `CCNC(=O)OCc1c(COC(=O)NCC)c(-c2ccc(F)cc2)n2c1Cc1c(n(C)c3ccccc13)C2` ; IC50 = 8.6

Data point: `CCn1c2c(c3ccccc31)Cc1c(COC(=O)NC(C)C)c(COC(=O)NC(C)C)c(C)n1C2` ; IC50 = 2.27

Data point: `CCNC(=O)OCc1c(COC(=O)NCC)c2n(c1C)Cc1c(c3ccccc3n1CC)C2` ; IC50 = 4.9

Data point: `CCNC(=O)OCc1c(COC(=O)NCC)c2n(c1CC)Cc1c(c3ccccc3n1C)C2` ; IC50 = 3.9
